# protocol.summary: Analgesic effect by tail pressure method
# Assay type: in vivo, mice of ddY strain
# condition.details: Mus musculus; oral, mice; pain threshold at 30, 60, 90 and 120 min; read-out: Analgesic action (ED50), Tail pressure method
experimental.readout: ED50 (mg/kg)
Give the value, in units of mg/kg, as a plain number.

Prompt line: Name the reported ED50 value associated with the compound CC(C)n1c2cc(Cl)ccc2c2oc(C(=O)NCCCN3CCCCC3)cc21 [Compound No. 8]
Response line: 87

Prompt line: Name the reported ED50 value associated with the compound CC(C)Cc1ccc(C(C)C(=O)O)cc1 (stereo not shown) [Ibuprofen, reference compound]
Response line: 324

Prompt line: Name the reported ED50 value associated with the compound O=C(NCCCN1CCCCC1)c1cc2[nH]c3cc(Cl)ccc3c2o1 [Compound No. 5]
Response line: 80

Prompt line: Name the reported ED50 value associated with the compound CCCn1c2cc(C)ccc2c2oc(C(=O)NCCCN3CCCCC3)cc21 [Compound No. 15]
Response line: 79.2

Prompt line: Name the reported ED50 value associated with the compound CCn1c2cc(Cl)ccc2c2oc(C(=O)NCCCN3CCCCC3)cc21 [Compound No. 7]
Response line: 41.8

Prompt line: Name the reported ED50 value associated with the compound Cc1c(N(C)C)c(=O)n(-c2ccccc2)n1C [Aminopyrin, reference compound]
Response line: 98

Prompt line: Name the reported ED50 value associated with the compound CC(C)n1c2cc(C(F)(F)F)ccc2c2oc(C(=O)NCCCN3CCCCC3)cc21 [Compound No. 12]
Response line: 93

* * *

# protocol.summary: Analgesic effect by D'Amour-Smith's method
# Format: in vivo, mice of ddY strain
# condition.details: Mus musculus; oral, mice; reaction time at 30, 60, 90 and 120 min; read-out: Analgesic action (ED50), D'Amour-Smith's method
Counter-ions that a name gives are not always drawn.
Criterion: ED50 strictly under 100 mg/kg. Met: TRUE. Not met: FALSE.

Prompt line: Strictly below 100 mg/kg in ED50? Cc1c(N(C)C)c(=O)n(-c2ccccc2)n1C [Aminopyrin, reference compound]
Response line: FALSE

Prompt line: Strictly below 100 mg/kg in ED50? `CCn1c2cc(Cl)ccc2c2oc(C(=O)NCCCN3CCCCC3)cc21`
Response line: TRUE

Prompt line: Strictly below 100 mg/kg in ED50? `Cn1c2cc(C(F)(F)F)ccc2c2oc(C(=O)NCCCN3CCCCC3)cc21`
Response line: TRUE

Prompt line: Strictly below 100 mg/kg in ED50? `Cn1c2ccccc2c2oc(C(=O)NCCCN3CCCCC3)cc21`
Response line: FALSE

Prompt line: Strictly below 100 mg/kg in ED50? CCCCC1C(=O)N(c2ccccc2)N(c2ccccc2)C1=O [Phenylbutazone, reference compound]
Response line: FALSE

Prompt line: Strictly below 100 mg/kg in ED50? `CCCn1c2cc(C)ccc2c2oc(C(=O)NCCCN3CCCCC3)cc21`
Response line: TRUE

Prompt line: Strictly below 100 mg/kg in ED50? O=C(Cn1c(=O)sc2ccc(Cl)cc21)N1CCN(CCO)CC1 [Tiaramide HCl, reference compound]
Response line: TRUE

Prompt line: Strictly below 100 mg/kg in ED50? `CCCn1c2cc(OC)ccc2c2oc(C(=O)NCCCN3CCCCC3)cc21`
Response line: FALSE

Prompt line: Strictly below 100 mg/kg in ED50? `CCn1c2cc(C(F)(F)F)ccc2c2oc(C(=O)NCCCN3CCCCC3)cc21`
Response line: TRUE

Prompt line: Strictly below 100 mg/kg in ED50? CC(C)Cc1ccc(C(C)C(=O)O)cc1 (stereo not drawn) [Ibuprofen, reference compound]
Response line: FALSE

Prompt line: Strictly below 100 mg/kg in ED50? `Cn1c2cc(Cl)ccc2c2oc(C(=O)NCCCN3CCCCC3)cc21`
Response line: TRUE

Prompt line: Strictly below 100 mg/kg in ED50? `CCn1c2cc(F)ccc2c2oc(C(=O)NCCCN3CCCCC3)cc21`
Response line: TRUE

Prompt line: Strictly below 100 mg/kg in ED50? `CC(C)n1c2cc(C(F)(F)F)ccc2c2oc(C(=O)NCCCN3CCCCC3)cc21`
Response line: FALSE

* * *

# protocol.summary: in vivo
# Parameters: species or system male rats of Wistar strain
# condition.details: rat, po
For each entry below, report its TD50 at 18 h value.
Give the value, in units of mg/kg, as a plain number.

Prompt line: Name the reported TD50 at 18 h value associated with the compound `O=C(NCCCN1CCCCC1)c1cc2[nH]c3cc(Cl)ccc3c2o1`
Response line: 400

Prompt line: Name the reported TD50 at 18 h value associated with the compound CC(C)Cc1ccc(C(C)C(=O)O)cc1 (stereo not drawn) [Ibuprofen, reference compound]
Response line: 278

Prompt line: Name the reported TD50 at 18 h value associated with the compound CCCCC1C(=O)N(c2ccccc2)N(c2ccccc2)C1=O [Phenylbutazone, reference compound]
Response line: 145

Prompt line: Name the reported TD50 at 18 h value associated with the compound `CC(C)n1c2cc(C(F)(F)F)ccc2c2oc(C(=O)NCCCN3CCCCC3)cc21`
Response line: 351

* * *

# protocol.summary: Anti-inflammatory effect by carrageenin edema method
# Assay type: in vivo, male rats of Wistar strain
# condition.details: ratio of inhibition % at 100 mg/kg oral, rats; values marked * in the anti-inflammatory column
experimental.readout: Ratio of antiedematous action (100 mg/kg test compound/100 mg/kg phenylbutazone)
Format: numeric value only, no unit, no commentary.

Prompt line: Name the reported Ratio of antiedematous action (100 mg/kg test compound/100 mg/kg phenylbutazone) value associated with the compound `Cn1c2cc(Cl)ccc2c2oc(C(=O)NCCCN3CCCCC3)cc21`
Response line: 1.29

Prompt line: Name the reported Ratio of antiedematous action (100 mg/kg test compound/100 mg/kg phenylbutazone) value associated with the compound `CCCn1c2cc(C)ccc2c2oc(C(=O)NCCCN3CCCCC3)cc21`
Response line: 0.78

Prompt line: Name the reported Ratio of antiedematous action (100 mg/kg test compound/100 mg/kg phenylbutazone) value associated with the compound `CC(C)n1c2cc(C(F)(F)F)ccc2c2oc(C(=O)NCCCN3CCCCC3)cc21`
Response line: 2.19

Prompt line: Name the reported Ratio of antiedematous action (100 mg/kg test compound/100 mg/kg phenylbutazone) value associated with the compound `CCn1c2cc(C(F)(F)F)ccc2c2oc(C(=O)NCCCN3CCCCC3)cc21`
Response line: 1.29

Prompt line: Name the reported Ratio of antiedematous action (100 mg/kg test compound/100 mg/kg phenylbutazone) value associated with the compound `CC(C)n1c2cc(Cl)ccc2c2oc(C(=O)NCCCN3CCCCC3)cc21`
Response line: 0.56

Prompt line: Name the reported Ratio of antiedematous action (100 mg/kg test compound/100 mg/kg phenylbutazone) value associated with the compound `O=C(NCCCN1CCCCC1)c1cc2[nH]c3cc(Cl)ccc3c2o1`
Response line: 0.73

Prompt line: Name the reported Ratio of antiedematous action (100 mg/kg test compound/100 mg/kg phenylbutazone) value associated with the compound `Cn1c2ccccc2c2oc(C(=O)NCCCN3CCCCC3)cc21`
Response line: 0.82

Prompt line: Name the reported Ratio of antiedematous action (100 mg/kg test compound/100 mg/kg phenylbutazone) value associated with the compound `CCCn1c2cc(OC)ccc2c2oc(C(=O)NCCCN3CCCCC3)cc21`
Response line: 0.92

Prompt line: Name the reported Ratio of antiedematous action (100 mg/kg test compound/100 mg/kg phenylbutazone) value associated with the compound `CCn1c2cc(Cl)ccc2c2oc(C(=O)NCCCN3CCCCC3)cc21`
Response line: 1.45

Prompt line: Name the reported Ratio of antiedematous action (100 mg/kg test compound/100 mg/kg phenylbutazone) value associated with the compound `CCn1c2cc(F)ccc2c2oc(C(=O)NCCCN3CCCCC3)cc21`
Response line: 0.84

* * *

# protocol.summary: Analgesic effect by tail pressure method
# Format: in vivo, mice of ddY strain
# condition.details: Mus musculus; oral, mice; pain threshold at 30, 60, 90 and 120 min; read-out: Analgesic action (ED50), Tail pressure method
Counter-ions that a name gives are not always drawn.
Criterion: ED50 strictly under 70 mg/kg. Met: 1 (yes). Not met: 0 (no).

Prompt line: Strictly below 70 mg/kg in ED50? O=C(Cn1c(=O)sc2ccc(Cl)cc21)N1CCN(CCO)CC1 [Tiaramide HCl, reference compound]
Response line: 0 (no)

Prompt line: Strictly below 70 mg/kg in ED50? `CCn1c2cc(C(F)(F)F)ccc2c2oc(C(=O)NCCCN3CCCCC3)cc21`
Response line: 1 (yes)

Prompt line: Strictly below 70 mg/kg in ED50? `Cn1c2cc(Cl)ccc2c2oc(C(=O)NCCCN3CCCCC3)cc21`
Response line: 1 (yes)

Prompt line: Strictly below 70 mg/kg in ED50? `CCn1c2cc(F)ccc2c2oc(C(=O)NCCCN3CCCCC3)cc21`
Response line: 0 (no)

Prompt line: Strictly below 70 mg/kg in ED50? `CCCn1c2cc(OC)ccc2c2oc(C(=O)NCCCN3CCCCC3)cc21`
Response line: 0 (no)

Prompt line: Strictly below 70 mg/kg in ED50? `Cn1c2cc(C(F)(F)F)ccc2c2oc(C(=O)NCCCN3CCCCC3)cc21`
Response line: 1 (yes)

Prompt line: Strictly below 70 mg/kg in ED50? CCCCC1C(=O)N(c2ccccc2)N(c2ccccc2)C1=O [Phenylbutazone, reference compound]
Response line: 0 (no)

Every entry's value here was drawn from patent US4288596A.
